# reported metabolised at 24 h; entries follow
Test: Stability of the compound in 50% human serum assessed as compound decomposition incubated for 24 hrs by SDS-PAGE analysis
*1 amine or outer side, *2 acyl side, *3 side chain or, on linkers, in order; H or OH if unused. Where a SMILES comes first, the peptide text is derived from it. Bridges are numbered along the chain shown (N, C = ends). oXylylene = c1ccc(C[*:2])c(C[*:1])c1
Give the number; % is assumed, so skip it.

compound	measurement label	unit descriptor	val
CC(C)C[C@H](NC(=O)[C@H](Cc1ccccc1)NC(=O)[C@@H](NC(=O)[C@H](CC(C)C)NC(=O)[C@H](CC(C)C)NC(=O)[C@H](CCC(=O)O)NC(=O)[C@@H](N)CS)[C@@H](C)O)C(=O)NCC(=O)N[C@@H](Cc1ccc(O)cc1)C(=O)N1CCC[C@H]1C(=O)N[C@H](C(=O)N[C@@H](Cc1ccc(O)cc1)C(=O)N[C@@H](CS)C(=O)O)C(C)C (H-CELLTFLGYPVYC-OH)	metabolised at 24 h	%	9.5

# context switch: different compound, same metabolised at 24 h
Name the reported metabolised at 24 h value associated with the compound CC(C)C[C@@H]1NC(=O)[C@H](Cc2ccccc2)NC(=O)[C@H]([C@@H](C)O)NC(=O)[C@H](CC(C)C)NC(=O)[C@H](CC(C)C)NC(=O)[C@H](CCC(=O)O)NC(=O)[C@@H](N)CSCc2ccccc2CSC[C@@H](C(=O)O)NC(=O)[C@H](Cc2ccc(O)cc2)NC(=O)[C@H](C(C)C)NC(=O)[C@@H]2CCCN2C(=O)[C@H](Cc2ccc(O)cc2)NC(=O)CNC1=O (H-CELLTFLGYPVYC-OH; linker 1-13 via oXylylene)
30.5
